// provenance: the supplement of paper PMC10307832

# Tested on: SW 1573
# assay.notes: relative viability (nuclei count vs DMSO), 5 days (fraction); higher = more cells survive
# conditions.used: first compound 0.1 µM
Task for the reader: assign each of the following molecules its reported relative viability.
One number for each entry.

Observe how each entry below is paired with its result.
CCN(CC)CCCCNc1ncc2cc(-c3cc(OC)cc(OC)c3)c(NC(=O)NC(C)(C)C)nc2n1 + COc1cc2c(Oc3ccc(NC(=O)C4(C(=O)Nc5ccc(F)cc5)CC4)cc3F)ccnc2cc1OCCCN1CCOCC1 [Foretinib] (partner 0.25 µM): 0.924
CCN(CC)CCCCNc1ncc2cc(-c3cc(OC)cc(OC)c3)c(NC(=O)NC(C)(C)C)nc2n1 + Cc1nc(Nc2ncc(C(=O)Nc3c(C)cccc3Cl)s2)cc(N2CCN(CCO)CC2)n1 [Dasatinib] (partner 0.075 µM): 0.457
O=c1cc(N2CCOCC2)oc2c(-c3cccc4c3sc3ccccc34)cccc12 + C[C@]1(O)C[C@@H](c2nc(-c3ccc4ccc(-c5ccccc5)nc4c3)c3c(N)nccn32)C1 [Linsitinib] (partner 1 µM): 0.746

Here's the next entry for you.
In plain terms, O=c1cc(N2CCOCC2)oc2c(-c3cccc4c3sc3ccccc34)cccc12 + Cc1cc(Nc2cc(N3CCN(C)CC3)nc(Sc3ccc(NC(=O)C4CC4)cc3)n2)n[nH]1 [Tozasertib] (partner 0.1 µM) has a documented relative viability of 0.164

----------
Task for the reader: assign each of the following molecules its reported relative viability.
# System: HOP-62
# assay.notes: relative viability (nuclei count vs DMSO), 5 days (fraction); higher = more cells survive
# conditions.used: first compound 0.08 µM

COc1nc(C)cnc1NS(=O)(=O)c1cccnc1-c1ccc(-c2nnco2)cc1 [Zibotentan] + C[C@]1(O)C[C@@H](c2nc(-c3ccc4ccc(-c5ccccc5)nc4c3)c3c(N)nccn32)C1 [Linsitinib] (partner 1 µM): 0.805
O=c1cc(-c2cccc3c2Sc2ccccc2S3)oc(N2CCOCC2)c1 + N=C(N)NC(=N)NCCc1ccccc1 [Phenformin] (partner 250 µM): 0.714
O=c1cc(-c2cccc3c2Sc2ccccc2S3)oc(N2CCOCC2)c1 + CS(=O)(=O)CCNCc1ccc(-c2ccc3ncnc(Nc4ccc(OCc5cccc(F)c5)c(Cl)c4)c3c2)o1 [Lapatinib] (partner 2 µM): 0.829
O=c1cc(-c2cccc3c2Sc2ccccc2S3)oc(N2CCOCC2)c1 + CCNC(=O)c1noc(-c2cc(C(C)C)c(O)cc2O)c1-c1ccc(CN2CCOCC2)cc1 [Luminespib] (partner 0.01 µM): 1.06
O=c1cc(-c2cccc3c2Sc2ccccc2S3)oc(N2CCOCC2)c1 + NC(=O)Nc1cc(-c2cccc(F)c2)sc1C(=O)N[C@H]1CCCNC1 [AZD7762] (partner 0.2 µM): 0.477
COc1nc(C)cnc1NS(=O)(=O)c1cccnc1-c1ccc(-c2nnco2)cc1 [Zibotentan] + CC(=O)c1c(C)c2cnc(Nc3ccc(N4CCNCC4)cn3)nc2n(C2CCCC2)c1=O [Palbociclib] (partner 0.5 µM): 0.47
COc1nc(C)cnc1NS(=O)(=O)c1cccnc1-c1ccc(-c2nnco2)cc1 [Zibotentan] + O=C(CCCCCCC(=O)Nc1ccccc1)NO [Vorinostat] (partner 1 µM): 0.676
COc1nc(C)cnc1NS(=O)(=O)c1cccnc1-c1ccc(-c2nnco2)cc1 [Zibotentan] + CCNC(=O)c1noc(-c2cc(C(C)C)c(O)cc2O)c1-c1ccc(CN2CCOCC2)cc1 [Luminespib] (partner 0.01 µM): 0.911
O=c1cc(-c2cccc3c2Sc2ccccc2S3)oc(N2CCOCC2)c1 + C[C@@H](Oc1cc(-c2cnn(C3CCNCC3)c2)cnc1N)c1c(Cl)ccc(F)c1Cl [Crizotinib] (partner 1 µM): 0.842

In plain terms, O=c1cc(-c2cccc3c2Sc2ccccc2S3)oc(N2CCOCC2)c1 + C[C@]1(O)C[C@@H](c2nc(-c3ccc4ccc(-c5ccccc5)nc4c3)c3c(N)nccn32)C1 [Linsitinib] (partner 1 µM) has a documented relative viability of 1.04
